B1: F1*; the commonest letter at each place (parent)
chain: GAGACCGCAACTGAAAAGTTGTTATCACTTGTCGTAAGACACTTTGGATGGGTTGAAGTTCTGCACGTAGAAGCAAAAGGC

# Variants of: B1
# Experiment: fraction ligated after 30 min (ligated reads / total reads); higher = more ligase activity
# Test Settings: with F1*sub RNA substrate (template-directed ligation), 42 °C
Would you please tag the item true (1) when its fraction ligated is 0.7 or above, and false (0) when it is below?

INSERT INTO measurements (variant_identifier, class_assignment) VALUES
  ('T23C T25G', 'false (0)');

Hello, I need to know if T30G A56G has measured fraction ligated not below 0.7. Thanks! true (1)

Hello, I need to know if T35A G47T has measured fraction ligated not below 0.7. Thanks! false (0)

Hello, I need to know if C26G G38A has measured fraction ligated not below 0.7. Thanks! false (0)

Hello, I need to know if A24C G46C has measured fraction ligated not below 0.7. Thanks! false (0)

Hello, I need to know if T25A C26T has measured fraction ligated not below 0.7. Thanks! false (0)
